Assay Protocol: NCI Yeast Anticancer Drug Screen. Data for the sgs1 mgt1 strain (AID 161);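 also: 0% = growth of cultures given vehicle only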
Condition Set: S. cerevisiae sgs1 mgt1 strain, hits give high values; at 50.0 µM unless noted
The panel holds about 79,000 compounds, 15% with a hit somewhere; the sample as a whole holds those more often.
Assay Readout: growth inhibition (%)
Could you give me the number in %? Just the number is fine.

The following compounds have reported results that may help.
CC1(C)OCC(C2OC3OC(C)(C)OC3C2N)O1 (stereo not given) :: 11.1
COc1cccc(C2c3cc4c(cc3OC(C)(O)C2C)OCO4)c1O (stereo not given) :: -0.25
Nc1nc(Cl)c(N)c(NCC2(CO)CC(Cc3ccccc3)C2)n1 (stereo not given) :: 18.9
O=C(O)CCCn1nnc2c(=O)[nH][nH]c(=O)c21 :: 4.4
S=c1sc2c(s1)SCCCCSCCCCSc1sc(=S)sc1SCCCCSCCCCS2 :: 1.1

Query CCS(=O)(=O)/C=C/c1cccs1 yields growth inhibition of -8.65

Query COc1ccc(N(C(=O)NCCO)c2ccccc2)cc1 yields growth inhibition of 14.9

Query COc1cc(OC)c(-c2nc3ccccc3c(=O)o2)cc1OC yields growth inhibition of -3.65

Query Cc1cc(C(=O)c2ccccc2)on1 yields growth inhibition of -11.9

Query O=C1NCC2(CCN(CCCC3(c4ccc(F)cc4)OCCO3)CC2)N1c1ccccc1 yields growth inhibition of -1.55

Query O=c1[nH]c2cccc([N+](=O)[O-])c2c2ccccc12 yields growth inhibition of 14.1
